- System: induction of TAT by dexamethasone in HepG2 cells
- test-details: HepG2 tyrosine aminotransferase (TAT) assay
- Format: cell-based, human
- study-conditions: HepG2 cells, challenge of 100 nM dexamethasone; Ki from IC50 by Cheng and Prusoff equation
- Method: Example 21. HepG2 Tyrosine Aminotransferase (TAT) Assay Glucocorticoid mediated activation of TAT occurs by transactivation of glucocorticoid response elements in the TAT promoter by glucocorticoid receptor agonist complex. TAT activity was measured as outlined in the literature by A. Ali et al., J. Med. Chem., 2004, 47, 2441-2452. HepG2 cells were cultured using MEME media supplemented with 10% (v/v) foetal bovine serum; 2 mM L-glutamine and 1% (v/v) NEAA at 37° C., 5%/95% (v/v) CO2/air. […]
pKi: −log10 of the molar value.
reported-endpoint: pKi

INSERT INTO results (compound, value_observed) VALUES
  ('Cn1cc(S(=O)(=O)N2CCC3=Cc4c(cnn4-c4ccc(F)cc4)C[C@]3(C(=O)c3ccccn3)C2)ccc1=O', '≤ 7.00'),
  ('Cn1ccc(S(=O)(=O)N2CCC3=Cc4c(cnn4-c4ccc(Cl)cc4)C[C@]3(C(=O)c3cc(C(F)(F)F)ccn3)C2)n1 [Example 11BR]', '> 7.70'),
  ('COc1ccc(S(=O)(=O)N2CCC3=Cc4c(cnn4-c4ccc(F)cc4)C[C@]3(C(=O)c3ccccn3)C2)cc1F [Example 11D]', '> 7.70'),
  ('O=C(c1nccs1)[C@]12Cc3cnn(-c4ccc(F)cc4)c3C=C1CCN(S(=O)(=O)c1ccc(Cl)c(Cl)c1)C2 [Example 12N]', '> 7.70');

For the compound `O=C(c1nccs1)[C@]12Cc3cnn(-c4ccc(F)cc4)c3C=C1CCN(S(=O)(=O)c1cncc(N3CCCCC3)c1)C2` , report pKi.
7.00 to 7.70

Note down pKi recorded for `O=C(c1nccs1)[C@]12Cc3cnn(-c4ccc(F)cc4)c3C=C1CCN(S(=O)(=O)c1cncc(N3CCCC3)c1)C2`
7.00 to 7.70

For Cn1ccc(S(=O)(=O)N2CCC3=Cc4c(cnn4-c4ccc(F)cc4)C[C@]3(C(=O)c3ccccn3)C2)n1 [Example 11BJ] , write its pKi.
7.00 to 7.70
